Structures can show the parent of a compound that is named as a salt.
PARAMETER: melting point

MOLECULE	PARAMETER	OBSERVED
CCN1CCc2cc(OCCF)cc3c2[C@H]1Cc1ccc(O)c(O)c1-3 (as salt: HCl)	melting point	163 to 165 °C
CN1CCc2cc(OCCF)cc3c2[C@H]1Cc1ccc(O)c(O)c1-3 (as salt: salt)	melting point	236 to 238 °C (dec.)
CCN1CCc2cc(OCCCF)cc3c2[C@H]1Cc1ccc(O)c(O)c1-3 (as salt: HCl)	melting point	174 to 176 °C (dec.)
Oc1cccc2c1-c1cccc3c1[C@@H](C2)N(CCCF)CC3 (as salt: HCl)	melting point	195 to 197 °C (dec.)
